Substrate: alpha-Naphthyl caprylate
ASSAY CONDITIONS: pH 5; 37 °C
Reported kcat is given for each of the following proteins.
Please respond with the number in s⁻¹ and leave the unit unwritten.

Example entries begin here.
PROTEIN	kcat, s⁻¹
unnamed (protein) MKQFSAKHALAVVVTAGHALAASTQGISEDLYTRLVEMATISQAAYADLCNIPSTIIKGEKIYNSQTDINGWILRDDSSKEIITVFRGTGSITNLQLDTNYTLTPFDTLPQCNGCEVHGGYYIGWVSVQDQVESLVKQQVSQYPDYALTVTGHSLGASLAALTAAQLSATYDNIRLYTFGEPRSGNQAFASYMNDAFQASSPDTTQYFRVTHANDGIPNLPPVEQGYAHGGVEYWSVDPYSAQNTFVCTGDEVQCCEAQGGQGVNNAHTTYFGMTSGACTW	0.64
unnamed (protein) MKQFSAKHALAVVVTAGHALAASTQGISEDLYTRLVEMATISQAAYADLCNIPSTIIKGEKIYNSQTDINGWILRDDSSKEIITVFRGTGSDRNLQLDTNYTLTPFDTLPQCNGCEVHGGYYIGWVSVQDQVESLVKQQVSQYPDYALTVTGHSLGASLAALTAAQLSATYDNIRLYTFGEPRSGNQAFASYMNDAFQASSPDTTQYFRVTHANDGIPNLPPVEQGYAHGGVEYWSVDPYSAQNTFVCTGDEVQCCEAQGGQGVNNAHTTYFGMTSGACTW	0.32
unnamed (protein) MKQFSAKHALAVVVTAGHALAASTQGISEDLYTRLVEMATISQAAYADLCNIPSTIIKGEKIYNSQTDINGWILRDDSSKEIITVFRGTGSDTNLQLDTNYTLTPFDTLPQCNGCEVHGGYYIGWVSVQDQVESLVKQQVSQYPDYALTVTGHSLGASLAALTAAQLSATYDNIRLYTFGEPRSGNQAFASYMNDAFQASSPDTTQYFRVTHANDGIPNLPPVEQGYAHGGVEYWSVDPYSAQNTFVCTGDEVQCCEAQGGQGVNNAHTTYFGMTSGACTW	0.85

Next, consider the following protein.
Exercise: Form field: reported kcat of unnamed (protein) MKQFSAKHALAVVVTAGHALAASTQGISEDLYTRLVEMATISQAAYADLCNIPSTIIKGEKIYNSQTDINGWILRDDSSKEIITVFRGTGSDTNLQLDTNFTLTPFDTLPQCNGCEVHGGYYIGWVSVQDQVESLVKQQVSQYPDYALTVTGHSLGASLAALTAAQLSATYDNIRLYTFGEPRSGNQAFASYMNDAFQASSPDTTQYFRVTHANDGIPNLPPVEQGYAHGGVEYWSVDPYSAQNTFVCTGDEVQCCEAQGGQGVNNAHTTYFGMTSGACTW
Key: 1.09
